Reference source for all entries: PubChem BioAssay

- experiment notes: growth suppression of beta-catenin knockout HCT116, pilot screen, human colon tumor cells (AID 823);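 further: 0% = wells killed by 20 µM Hyamine and 100% = untreated DMSO cell wells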
- experimental conditions: CellTiter-Glo, 60 h, at 10 µM, hits give low values
Inconclusive results are not listed.
test readout: viability (%)
Numbers only, in %.

Example entries begin here.
In [3]: df
Out[3]:
                                   molecule  result_value
0  O=C(C1CC(c2ccc(F)cc2)=NO1)N1CCc2ccccc2C1 (configuration not stated)           101
1  Cc1csc(NC(=O)CSc2nnc(Cn3c(=O)sc4ccccc43)n2-c2ccccc2)n1            96
2  CCOCCn1c(CN(Cc2ccccc2)Cc2ccccc2)nc2c1c(=O)n(C)c(=O)n2C          64.7

Take each entry in turn and give its viability.
1. CCCCc1ccc(-c2nc(-c3ccncc3)no2)cc1
2. O=C(Cn1c(=O)[nH]c2ccsc2c1=O)NC1CCCCC1
3. O=C(Nc1nc2ccccc2n1CCN1CCCC1)c1ccc(Cl)cc1
4. Cn1c(CNc2ccccc2O)nc2ccccc21
5. COc1ccccc1C(=O)Nc1nnn(C)n1
6. O=C1CC(c2ccccc2)n2nc(N3C(=O)CCC3=O)nc2N1 (configuration not stated)
7. O=C(c1c(Cl)nc2sccn12)N1CCN(c2cccc(Cl)c2)CC1

Result string:
1: 65.8; 2: 94.9; 3: 59.9; 4: 68.8; 5: 108; 6: 97.9; 7: 13.8

Could I get viability for every one of these entries?
1. O=C(N=c1nc2ccccn2s1)c1ccccc1
2. CN1CCN(Cc2ccc(OCc3ccccc3)cc2)CC1

Result string:
1. 71.6
2. 88.1
